System name: human ether-à-go-go-related gene (hERG) potassium channel (human);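 further: peak tail current of the secondary pulse compared with the same well before compound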
Test method notes: primary screen, population patch clamp on CHO cells stably expressing hERG; higher = less effect of the substance
The campaign covered roughly 310,000 compounds. About 14,000 (4.5%) showed an effect of 50% or more. Effects have a minus sign here. Only a selection was taken, and strong results are over-represented in it overall.
Answer FALSE if hERG current change (%, negative = inhibition) at 10uM is under 10%, and TRUE if it is 10% or more.

Compound	Label
CCOC(=O)c1sc(NC(=O)c2ccco2)nc1C	TRUE
Cc1nc2cc(C(F)(F)F)ccc2n1C1CCN(C(=O)N2CCOCC2)CC1	FALSE
CC1(c2ccccc2)CC(C)(C)N2C(=O)C(=O)c3cccc1c32 (centres unmarked)	TRUE
CCOc1ccccc1CNC(=O)Cn1ccc2cc(S(=O)(=O)N3CCCCCC3)ccc21	TRUE
CCCn1c(N)c(C(=O)CSc2nnc(Cc3ccccc3)o2)c(=O)n(C)c1=O	FALSE

* * *

System name: human ether-à-go-go-related gene (hERG) potassium channel (human, UniProt Q12809);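 further: peak tail current of the secondary pulse compared with the same well before compound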
Sequence (Q12809 whole entry, looked up): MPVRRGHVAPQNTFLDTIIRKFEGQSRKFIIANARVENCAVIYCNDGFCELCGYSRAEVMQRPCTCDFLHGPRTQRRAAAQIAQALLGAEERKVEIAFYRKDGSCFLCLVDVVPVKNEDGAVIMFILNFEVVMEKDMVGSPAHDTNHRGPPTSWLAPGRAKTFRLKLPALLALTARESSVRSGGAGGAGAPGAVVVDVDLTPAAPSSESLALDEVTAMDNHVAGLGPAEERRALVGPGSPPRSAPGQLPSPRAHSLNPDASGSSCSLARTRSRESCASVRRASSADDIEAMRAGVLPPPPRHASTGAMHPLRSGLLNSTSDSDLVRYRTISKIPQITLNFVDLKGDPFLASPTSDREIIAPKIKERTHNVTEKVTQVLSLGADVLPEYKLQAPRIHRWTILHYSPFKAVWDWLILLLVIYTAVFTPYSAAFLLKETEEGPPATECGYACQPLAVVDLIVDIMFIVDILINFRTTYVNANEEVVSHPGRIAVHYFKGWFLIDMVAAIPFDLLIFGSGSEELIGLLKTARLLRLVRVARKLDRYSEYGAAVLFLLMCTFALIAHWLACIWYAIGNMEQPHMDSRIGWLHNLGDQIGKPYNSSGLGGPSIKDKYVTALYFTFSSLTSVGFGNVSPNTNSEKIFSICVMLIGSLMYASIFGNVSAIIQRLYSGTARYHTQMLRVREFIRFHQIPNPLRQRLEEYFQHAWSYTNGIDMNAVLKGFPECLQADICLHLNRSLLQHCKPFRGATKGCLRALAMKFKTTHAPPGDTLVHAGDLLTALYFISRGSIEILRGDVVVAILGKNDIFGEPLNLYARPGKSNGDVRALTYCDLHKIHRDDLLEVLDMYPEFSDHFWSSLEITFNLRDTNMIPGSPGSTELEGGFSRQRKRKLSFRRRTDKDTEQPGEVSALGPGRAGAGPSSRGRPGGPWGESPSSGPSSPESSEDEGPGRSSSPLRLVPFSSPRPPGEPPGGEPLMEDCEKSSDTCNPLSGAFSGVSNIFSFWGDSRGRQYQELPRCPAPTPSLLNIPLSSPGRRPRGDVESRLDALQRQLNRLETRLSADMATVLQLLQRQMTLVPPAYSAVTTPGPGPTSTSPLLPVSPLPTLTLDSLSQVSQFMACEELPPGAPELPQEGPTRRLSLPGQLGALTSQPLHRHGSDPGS
Test method notes: primary screen, population patch clamp on CHO cells stably expressing hERG; higher = less effect of the substance
About 14,000 (4.5%) of roughly 310,000 compounds showed an effect of 50% or more. The effect is printed as a negative number. The sample as a whole holds a higher share of strong results than the screen did.
hERG current change (%, negative = inhibition) at 10uM values by entry
Parameter: hERG current change (%, negative = inhibition) at 10uM (%)

Compound	System name	Result value
O=C1C2C3c4ccccc4C(c4ccccc43)C2C(=O)N1Cc1ccco1 (stereo not drawn)	human ether-à-go-go-related gene (hERG) potassium channel (human, UniProt Q12809)	5.12
CCn1c(C2CC(=O)N(c3ccc(C)c(C)c3)C2)nc2ccccc21 (stereo not drawn)	human ether-à-go-go-related gene (hERG) potassium channel (human, UniProt Q12809)	-11.5
Cc1oc2cc(OCc3cnn(-c4ccccc4)c3)ccc2c(=O)c1Oc1ccccc1F	human ether-à-go-go-related gene (hERG) potassium channel (human, UniProt Q12809)	-11.2
COc1ccc(CC(=O)NNC(=O)CN(C)S(=O)(=O)c2ccc(Cl)cc2)cc1OC	human ether-à-go-go-related gene (hERG) potassium channel (human, UniProt Q12809)	0.252
Cn1c(CCC(=O)Nc2cc(S(C)(=O)=O)ccc2Cl)nc2cc(S(=O)(=O)N3CCOCC3)ccc21	human ether-à-go-go-related gene (hERG) potassium channel (human, UniProt Q12809)	-25.4
COc1cc(CNCCc2ccccc2F)ccc1OCc1ccc(Cl)nc1.Cl	human ether-à-go-go-related gene (hERG) potassium channel (human, UniProt Q12809)	-49.5
CCN(c1cccc(C)c1)S(=O)(=O)c1cnc[nH]1	human ether-à-go-go-related gene (hERG) potassium channel (human, UniProt Q12809)	9.23
CC(C)(C)NC(=O)NC(=O)CSc1nnc2ccccn12	human ether-à-go-go-related gene (hERG) potassium channel (human, UniProt Q12809)	-2.98
O=C(O)CCC(=O)N1CCN(Cc2ccc3c(c2)OCO3)CC1	human ether-à-go-go-related gene (hERG) potassium channel (human, UniProt Q12809)	11.6
COC(=O)c1ccc(Oc2coc3cc(OCc4cnn(-c5ccccc5)c4)ccc3c2=O)cc1	human ether-à-go-go-related gene (hERG) potassium channel (human, UniProt Q12809)	7.07
COc1ccc(Oc2coc3cc(OC(=O)N4CCOCC4)ccc3c2=O)cc1	human ether-à-go-go-related gene (hERG) potassium channel (human, UniProt Q12809)	-25.3
CCCn1c2ccc(F)cc2c2nnc(NN)nc21	human ether-à-go-go-related gene (hERG) potassium channel (human, UniProt Q12809)	-1.94
COc1ccc(/C=C(/NC(=O)c2ccc(OC)c(OC)c2)C(=O)NCCCn2ccnc2)cc1	human ether-à-go-go-related gene (hERG) potassium channel (human, UniProt Q12809)	11.5
O=C1C2Sc3[nH]c(=O)sc3C(c3ccccc3)C2C(=O)N1c1ccccc1 (stereo not drawn)	human ether-à-go-go-related gene (hERG) potassium channel (human, UniProt Q12809)	-2.84
N#Cc1ccc(S(=O)(=O)N2CCC(C(=O)N3CCN(Cc4ccc5c(c4)OCO5)CC3)CC2)cc1	human ether-à-go-go-related gene (hERG) potassium channel (human, UniProt Q12809)	-74.2
O=C(CCC1CCCCC1)N1CCN(Cc2ccc3c(c2)OCO3)CC1	human ether-à-go-go-related gene (hERG) potassium channel (human, UniProt Q12809)	-67.2
CCCOc1ccc(C(=O)Nc2ccc3c(c2)OCO3)cc1	human ether-à-go-go-related gene (hERG) potassium channel (human, UniProt Q12809)	16.1
CCCCNCc1ccc(OCc2ccc(Cl)nc2)c(OC)c1.Cl	human ether-à-go-go-related gene (hERG) potassium channel (human, UniProt Q12809)	-32.7
Cc1cccc(N2CCN(C(=O)CCN3C(=O)C4C5C=CC(C5)C4C3=O)CC2C)c1 (stereo not drawn)	human ether-à-go-go-related gene (hERG) potassium channel (human, UniProt Q12809)	-18.2
CCn1c2ccc(F)cc2c2nnc(SCCN3CCCCC3)nc21	human ether-à-go-go-related gene (hERG) potassium channel (human, UniProt Q12809)	-61
CC(NC(=O)CCc1nc2cc(S(=O)(=O)N3CCOCC3)ccc2n1C)c1ccc(S(N)(=O)=O)cc1 (stereo not drawn)	human ether-à-go-go-related gene (hERG) potassium channel (human, UniProt Q12809)	-57.9
Cc1ccc(C(=O)N/C(=C\c2ccc(F)cc2)C(=O)NCCCn2ccnc2)cc1	human ether-à-go-go-related gene (hERG) potassium channel (human, UniProt Q12809)	-77.5
COc1ccc(C(=O)NCCCn2ccnc2)cc1.Cl	human ether-à-go-go-related gene (hERG) potassium channel (human, UniProt Q12809)	-5.63
CCc1cc(C(=O)N2CCN(c3ccccc3OC)CC2)sc1C	human ether-à-go-go-related gene (hERG) potassium channel (human, UniProt Q12809)	-15
O=C(C1CCN(S(=O)(=O)c2ccccc2)CC1)N1CCN(Cc2ccc3c(c2)OCO3)CC1	human ether-à-go-go-related gene (hERG) potassium channel (human, UniProt Q12809)	-28.9
CCc1ccc(S(=O)(=O)NC2CC(C)(C)NC(C)(C)C2)cc1	human ether-à-go-go-related gene (hERG) potassium channel (human, UniProt Q12809)	5.09
COc1ccc2c(c1)CCc1c(C(=O)NCCCn3ccnc3)noc1-2	human ether-à-go-go-related gene (hERG) potassium channel (human, UniProt Q12809)	-50.2
COc1ccc(N2CC(C(=O)Nc3ccc(S(=O)(=O)N4CCOCC4)cc3)CC2=O)cc1 (stereo not drawn)	human ether-à-go-go-related gene (hERG) potassium channel (human, UniProt Q12809)	13.4
COc1cc(CNCCc2ccccc2)ccc1OCc1ccc(Cl)nc1.Cl	human ether-à-go-go-related gene (hERG) potassium channel (human, UniProt Q12809)	-39.5
CCOc1ccccc1Oc1coc2cc(OCC(=O)O)ccc2c1=O	human ether-à-go-go-related gene (hERG) potassium channel (human, UniProt Q12809)	24.3
COc1ccc(/C=C(/NC(=O)c2ccccc2)C(=O)NCCCn2ccnc2)cc1OC	human ether-à-go-go-related gene (hERG) potassium channel (human, UniProt Q12809)	19
Cc1ccc(N2CC(c3nc4ccccc4n3C)CC2=O)cc1 (stereo not drawn)	human ether-à-go-go-related gene (hERG) potassium channel (human, UniProt Q12809)	-21.5
CCn1c2ccccc2c2nnc(SCCN3CCOCC3)nc21	human ether-à-go-go-related gene (hERG) potassium channel (human, UniProt Q12809)	3.2
COc1cccc(Oc2coc3cc(OC(=O)N4CCOCC4)ccc3c2=O)c1	human ether-à-go-go-related gene (hERG) potassium channel (human, UniProt Q12809)	-4.27
Cc1cc(C)cc(N2CC(c3nc4ccccc4n3C)CC2=O)c1 (stereo not drawn)	human ether-à-go-go-related gene (hERG) potassium channel (human, UniProt Q12809)	-10.8
Cc1cc(C)nc(N(C#N)Cc2ccc(Br)cc2)n1	human ether-à-go-go-related gene (hERG) potassium channel (human, UniProt Q12809)	4.33
COC(=O)COc1ccc2c(=O)c(Oc3ccccc3Br)coc2c1	human ether-à-go-go-related gene (hERG) potassium channel (human, UniProt Q12809)	14
Cn1c(CCC(=O)Nc2ccc(F)cc2)nc2cc(S(=O)(=O)N3CCOCC3)ccc21	human ether-à-go-go-related gene (hERG) potassium channel (human, UniProt Q12809)	-17.7
CCCC(=O)N1CCN(Cc2ccc3c(c2)OCO3)CC1	human ether-à-go-go-related gene (hERG) potassium channel (human, UniProt Q12809)	-3.83
